Molecular target: UniProtKB Q96GG9
Assay: Competitive FP binding assay
Details: read-out: Binding affinity to DCN1 (IC50 (nM))
Numbered stars: 1 amine (or outer) side, 2 acyl side, 3 side chain; on linkers, the order of the positions; unused ones are H or OH. Square brackets hold non-standard residues; d marks the D form. Peptide text beside a SMILES is read from it. * marks the point of attachment. Ala(6-iPr-benzothiazol-2-yl) = CC(C)c1ccc2nc(C[C@H](N)C(=O)O)sc2c1; Ala(benzothiazol-2-yl) = N[C@@H](Cc1nc2ccccc2s1)C(=O)O; 2Nal = N[C@@H](Cc1ccc2ccccc2c1)C(=O)O; CO = O=C([*:1])[*:2]; NHBn = c1ccc(CN*)cc1; Propionyl = CCC(=O)*
experimental_readout: IC50 (nM)
Please reply with the bare figure in nM and do not write the unit itself.

Documented IC50 of CCC(=O)N[C@@H](Cc1cn2cc(Cl)ccc2n1)C(=O)N[C@H](CN)Cc1ccccc1 : 4170

IC50 reported for this compound CCC(=O)N[C@@H](Cc1nc2ccc(Cl)cc2s1)C(=O)N[C@H](CNC(=O)[C@H](C)CN1CCOCC1)Cc1ccccc1 : 611

According to the records, this compound CCC(=O)N[C@@H](Cc1nc2cc(Cl)ccc2s1)C(=O)N[C@H](C(=O)N[C@@H](CCCCN)C(=O)NC(c1ccccc1)c1ccccc1)[C@@H](C)CC displays IC50 of 1900

So for CCC(=O)N[C@@H](Cc1ccc2ccccc2c1)C(=O)N[C@H](C(=O)N[C@@H](CCCCN)C(=O)NCc1ccccc1)[C@@H](C)CC [Example 10] (Propionyl-[2Nal]-Ile-Lys-NHBn) , the logged IC50 turned out to be 3900

Short answer for CC[C@H](C)[C@H](NC(=O)[C@H](Cc1nc2ccc(C(C)C)cc2s1)NC(=O)NC)C(=O)N[C@@H](CCCCN)C(=O)N[C@@H](CC(C)C)C(N)=O [Example 278] ({NHMe-CO}-[Ala(6-iPr-benzothiazol-2-yl)]IKL-NH2) : IC50 was 68.2

compound CCC(=O)N[C@@H](Cc1nc2ccc(C(C)C)cc2s1)C(=O)N[C@H](CNc1ccncn1)C1CCCCC1 , IC50 observed: 189

Item: CCC(=O)N[C@@H](Cc1nc2ccc(C)cc2s1)C(=O)N[C@@H](Cc1ccccn1)C(=O)N[C@@H](CCCCN)C(=O)N[C@@H]1CCOc2ccccc21 | IC50: 133

GET /value?item= CCC(=O)N[C@@H](Cc1ccc2ccccc2c1)C(=O)N[C@H](C(=O)N[C@@H](CCCCN)C(=O)N[C@H]1CCCc2ccccc21)[C@@H](C)CC &field=IC50 returns 795

Lab note: measured IC50 of CCC(=O)N[C@@H](Cc1nc2ccc(C(C)C)cc2s1)C(=O)N[C@H](CNC(=O)c1nnc[nH]1)C1CCCCC1 was 119

Field IC50 (entry CC[C@H](C)[C@H](NC(=O)[C@H](Cc1nc2ccccc2s1)NC(C)=O)C(=O)N[C@@H](CCCCN)C(=O)N[C@@H](CC(C)C)C(N)=O [Example 2] (Ac-[Ala(benzothiazol-2-yl)]IKL-NH2) ) reads 322

The value of IC50 measured for the compound CCC(=O)N[C@@H](Cc1nc2ccc(C(C)C)cc2s1)C(=O)N[C@@H](C)C(=O)N[C@@H](CCCCN)C(=O)N[C@@H](CC(C)C)C(N)=O [Example 280] (Propionyl-[Ala(6-iPr-benzothiazol-2-yl)]AKL-NH2) turned out to be 69.4

###

Biological target: DCN1 (Homo sapiens (Human), UniProt Q96GG9)
Sequence (Q96GG9 58-259): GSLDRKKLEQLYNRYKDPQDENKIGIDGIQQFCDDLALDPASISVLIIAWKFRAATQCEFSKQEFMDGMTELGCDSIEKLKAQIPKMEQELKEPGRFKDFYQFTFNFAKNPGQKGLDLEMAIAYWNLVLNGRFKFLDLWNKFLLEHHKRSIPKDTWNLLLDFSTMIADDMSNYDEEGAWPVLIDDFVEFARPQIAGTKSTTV
Assay: Competitive FP binding assay
Conditions: read-out: Binding affinity to DCN1 (IC50 (nM))
Square brackets hold non-standard residues; d marks the D form. Peptide text beside a SMILES is read from it. * marks the point of attachment. Ala(6-iPr-benzothiazol-2-yl) = CC(C)c1ccc2nc(C[C@H](N)C(=O)O)sc2c1; Isovaleryl = CC(C)CC(=O)*
Threshold-based label: IC50 under 500 nM gives y, IC50 not under 500 nM gives n.

Report whether reported IC50 is lower than 500 nM (strictly) for CCC(=O)N[C@H](CNC(=O)C1(N)CCCCCC1)Cc1nc2ccc(C(C)C)cc2s1
n

In the record for CCC(=O)N[C@@H](Cc1nc2ccc(C(C)C)cc2s1)C(=O)N[C@H](CN)Cc1ccccc1 , is IC50 less than 500 nM?
y

Record CC[C@H](C)[C@H](NC(=O)[C@H](Cc1nc2ccc(C(C)C)cc2s1)NC(=O)CC(C)C)C(=O)N[C@@H](CCCCN)C(=O)N[C@@H](CC(C)C)C(N)=O [Example 277] (Isovaleryl-[Ala(6-iPr-benzothiazol-2-yl)]IKL-NH2) : is its IC50 strictly below 500 nM?
n

Is it true that IC50 reported for CCC(=O)N[C@@H](Cc1nc2ccc(Cl)cc2o1)C(=O)N[C@H](C(=O)N[C@@H](CCCCN)C(=O)NC(c1ccccc1)c1ccccc1)[C@@H](C)CC is less than 500 nM?
y

Please check: IC50 for CCC(=O)N[C@@H](Cc1nc2cc(Cl)ccc2s1)C(=O)N[C@H](C(=O)N[C@@H](CCCCN)C(=O)NC(c1ccccc1)c1ccccc1)C1CCCC1 , strictly under 500 nM or not?
n

Hello, I'm reviewing records and need to know if IC50 of CCC(=O)N[C@@H](Cc1ccc2ccccc2c1)C(=O)N[C@H](C(=O)N[C@@H](CCCCN)C(=O)N[C@@H]1CNCc2ccccc21)C1CCCC1 is below 500 nM. Could you check?
y

In the record for CCC(=O)N[C@@H](Cc1nc2ccc(Cl)cc2s1)C(=O)N[C@H](C(=O)N[C@@H](CCCCN)C(=O)N[C@@H]1CCCc2ccccc21)C1CCCC1 , is IC50 less than 500 nM?
y

Does this compound meet the criterion IC50 < 500 nM? CCC(=O)N[C@@H](Cc1nc2ccc(C(C)C)cc2s1)C(=O)N[C@H](C(=O)N[C@@H](CCCCN)C(N)=O)C1CCCCC1
y

Determine whether this compound shows IC50 lower than 500 nM (ties excluded): CCC(=O)N[C@@H](Cc1ccc2ccccc2c1)C(=O)N[C@H](C(=O)N[C@@H](CCCCN(C)C)C(=O)NC(c1ccccc1)c1ccccc1)C1CCCC1
y

Given CCC(=O)N[C@@H](Cc1ccc2ccccc2c1)C(=O)N[C@H](C(=O)N[C@@H](CCCCN1CCOCC1)C(=O)NC(c1ccc(F)cc1)c1ccc(F)cc1)C1CCCC1 , is recorded IC50 strictly lower than 500 nM?
n

# TODO verify IC50 < 500 nM strictly for this compound: CCC(=O)N[C@@H](Cc1nc2ccc(CC)cc2o1)C(=O)N[C@H](C(=O)N[C@@H](CCCCN)C(=O)N[C@@H]1CCOc2ccccc21)C1CCOCC1
y

Please state whether IC50 is below 500 nM for CCC(=O)N[C@@H](Cc1nc2ccc(Cl)cc2s1)C(=O)N[C@H](C(=O)N[C@@H](CCCCN)C(=O)N[C@@H]1CNCc2ccccc21)C1CCOCC1
y

###

Molecular target: DCN1 (Homo sapiens (Human), UniProt Q96GG9)
Test: Competitive FP binding assay
Conditions: read-out: Binding affinity to DCN1 (IC50 (nM))
Square brackets hold non-standard residues; d marks the D form. Peptide text beside a SMILES is read from it. * marks the point of attachment. Ala(6-iPr-benzothiazol-2-yl) = CC(C)c1ccc2nc(C[C@H](N)C(=O)O)sc2c1; Propionyl = CCC(=O)*; Butyryl = CCCC(=O)*
Assignment: determine reported log10(IC50) for the given compounds.
Log10 applied to IC50; unit prior to transform: nM.

Value of measured log10(IC50) for the entry CCC(=O)N[C@@H](Cc1nc2ccc(Cl)cc2s1)C(=O)N[C@H](CNC(=O)[C@@H](C)CN1CCOCC1)Cc1ccccc1 : 2.67

// field: log10(IC50); key: CCC(=O)N[C@@H](Cc1nc2ccc(C(C)C)cc2s1)C(=O)N[C@H](CNS(=O)(=O)C1CCNCC1)C1CCCCC1 ; value = 1.74

Sample CCC(=O)N[C@@H](Cc1nc2ccc(Cl)cc2s1)C(=O)N[C@H](C(=O)N[C@@H](CCCCN)C(=O)N[C@H]1CNCc2ccccc21)C1CCCC1 ; log10(IC50) observed: 2.90

Form field log10(IC50), entry CCC(=O)N[C@@H](Cc1nc2ccc(CC)cc2s1)C(=O)N[C@H](C(=O)N[C@@H](CCCCN)C(=O)N[C@@H]1CNCc2ccccc21)C1CCCC1 : 1.90

log10(IC50) reported for this compound CCC(=O)N[C@@H](Cc1cn2cc(Cl)ccc2n1)C(=O)N[C@H](C(=O)N[C@@H](CCCCN)C(=O)N[C@@H]1CCOc2ccccc21)C1CCOCC1 : 2.20

Briefly, log10(IC50) measured for CCC(=O)N[C@@H](Cc1nc2ccc(Cl)cc2s1)C(=O)N[C@H](C(=O)N[C@@H](CCCCN(C)C)C(=O)N[C@@H]1CCOc2ccccc21)C1CCCC1 : 1.25

log10(IC50) measured on CCC(=O)N[C@@H](Cc1nc2ccc(C(C)C)cc2s1)C(=O)N[C@@H](Cc1ccccc1)C(=O)N[C@@H](CCCCN)C(=O)N[C@@H](CC(C)C)C(N)=O [Example 290] (Propionyl-[Ala(6-iPr-benzothiazol-2-yl)]FKL-NH2) = 1.75

The measured log10(IC50) associated with CCC(=O)N[C@@H](Cc1cn2cc(Cl)ccc2n1)C(=O)N[C@H](C(=O)N[C@@H](CCCCN)C(=O)N[C@@H]1CCOc2ccccc21)C1CCCC1 reads 1.75

CCCC(=O)N[C@@H](Cc1nc2ccc(C(C)C)cc2s1)C(=O)N[C@H](C(=O)N[C@@H](CCCCN)C(=O)N[C@@H](CC(C)C)C(N)=O)[C@@H](C)CC [Example 276] (Butyryl-[Ala(6-iPr-benzothiazol-2-yl)]IKL-NH2) yielded log10(IC50) of 2.04

Sure, the documented log10(IC50) for CCC(=O)N[C@@H](Cc1nc2ccc(C(C)C)cc2s1)C(=O)N[C@H](CNC(=O)C1CCN(C(C)C)CC1)C1CCCCC1 is 2.04

Looking up CCC(=O)N[C@@H](Cc1nc2ccc(Cl)cc2s1)C(=O)N[C@H](C(=O)N[C@@H](CCCCN)C(=O)NCc1ccncc1)C1CCOCC1 , I see its log10(IC50) listed as 3.18
